assay: folding stability dG unfold from trypsin proteolysis; higher = more stable
quantity: folding stability dG unfold

residue_sequence	folding stability dG unfold
SAGGSAGGSAGAKKLPPGQVALRIEPVTVTVTDEDGKERTVTRIRLVDAATGEEYEFTFPSAGGSAGGSAGG [r17_266_TrROS_Hall]	0.829 kcal/mol
SADRIKINVMTHQSPDGRPYYMVSIRIPGNGKEIMGPIDSPEDAEEQAKEIADKLEKEGIPIEVEIYPMSAG [r14_263_TrROS]	2.13 kcal/mol
SAGGSAMTAEELKGMKVKITLKNGKKIEAKIKKVEVINGEIYIEIDGKKIKLKKNEKYKIEIVEKKSAGGSA [r15_355_TrROS_Hall]	1.84 kcal/mol

Now look at this entry.
Look up folding stability dG unfold of SAGGSAGGSAMKLKVPTKDGKVYEVTVVDYDPENEKVVVKNPDTDELYTFSLEDFKKILEANSAGGSAGGSA [r18_161_TrMRF] and report it.
2.72 kcal/mol

* * *

experiment: folding stability dG unfold from chymotrypsin proteolysis; higher = more stable
quantity: folding stability dG unfold (kcal/mol)
Use kcal/mol as the unit, but write only the number.

Worked examples, 2 sequences total:
residue_sequence	quantity	test_result
SAGGSAGGSAGGKPTIKLKVTITNENGEKIEIEVEAESEEEALEALKALLPPGWKVEIESAGGSAGGSAGGS [r10_145_TrROS_Hall]	folding stability dG unfold	2.82
SAGGSAEETIEIEIPLEDLKPRKDGKLTEEEIKERLRKLIEELTGKKPKEITVERDENGTLRITIRSAGGSA [r15_562_TrROS_Hall]	folding stability dG unfold	2.54

Supply folding stability dG unfold value. Item: SAGGSAGGSAGGSIVIEVDTLEEAKKLAEKLNLKVTEVKEVDGKLYVKIEIKSPEELKKSAGGSAGGSAGGS [r10_218_TrROS_Hall]
2

* * *

test: folding stability dG unfold from trypsin proteolysis; higher = more stable
quantity: folding stability dG unfold (kcal/mol)
Give the value, in units of kcal/mol, as a plain number.

Sample answers from the record:
residue_sequence	quantity	test_result
SAMIVVTLTINPITGKPILIFDPGVGVYAIDPETGEPHEATVDGDTLTLNFGNRPILLTPEAVIPPEELSAG [r14_208_TrMRF]	folding stability dG unfold	0.94
SAGGSPIIRVKVTYYPPDGSVTVYLPADSVDELIDALNSVPDIPVTPTDGDTIIASTPDAIVEITVESSAGG [r13_143_TrMRF]	folding stability dG unfold	0.471

Please give the documented folding stability dG unfold of SAGGMSPDQIWKAKLLSRKKGKNGSVYNIVIYNPDNPKPIFINKPGDNPEDVLKELEELVKKGPIDLESAGG [r13_286_TrMRF]
0.354

Give me measured folding stability dG unfold, please, for this sequence: SAGGSAKPVEVELPDGIEIYYPKDRMYIEINLPNGRPIKIPFEFDDPNDPERALDKARDLVKKLPWSAGGSA [r15_748_TrROS]
-0.577

* * *

test: folding stability dG unfold from trypsin proteolysis; higher = more stable
Label scheme for folding stability dG unfold: low group (below 0.8 kcal/mol), middle group (0.8 kcal/mol to below 2 kcal/mol), high group (2 kcal/mol or more)

residue_sequence	group
SAGGSAGGSMTVKKIEIKPPPGGTDLATITTEKVDPSTGKPSLSTSTVTVPKNNPEAIEKFLSSAGGSAGGS [r12_691_JUSTAS]	low group

Assign a category based on measured folding stability dG unfold for SMDFKENQSFYITEITDDEVTFIFNNKPYKFPKEFINSKDTIITIYNGKIKEIKKPKPLKLHPEEIKKLSSA [r9_842_TrMRF] and give only the class name.
low group

Record PETVTLTVEIEIEVRGPDGKPLTPEQVEELAKALAEELAAELGLEVEVTVTVEPVGPDGKYRITVTVTIRPS [r1_231_TrROS_Hall] — which class?
high group

# classify by folding stability dG unfold band: SIKIEPHPDGFFMLRFPDNGHKIMIRVDPEKGKVKIMFETPGQPVEQEIDPDEGTITIEFPNNKIEIPIKSA [r9_541_TrROS]
high group

Assign a bin to SEEPVEERDIVVKPGEEVKLELPEEPETVRVYVFNEDGELIEEREFPPGATPEELEGLKLPPGAVVRIVRSA [r9_215_TrROS_Hall]
middle group

Category lookup for the sequence SAGGSAGGSAMITSDDLEKLLKKLGIDPKKLGPEKLAKIFKELYPDAIITADPEGKAYIYPSAGGSAGGSAG [r3_375_TrMRF]
middle group

Category of SAGGSAGGSAGGKYKILKIEKYKLPNGGYYYKALVYEEENGEWKEIYAKANSAKNFKFESAGGSAGGSAGGS [r10_326_TrMRF] , please.
middle group

Please let me know in which category the item SAGGSAGGSAGPKILSIEEYDPENGYITVIAELTGKPVRMKVKFIPGKKEIKIIEIEPLDSAGGSAGGSAGG [r11_1066_TrMRF] belongs.
middle group

Given SAGGMKTFEKPMTAEEVMALLEEIAKKGNVNVTIETEGKTYEVDPSKAKPIPPENVTAKITITELPKSAGGS [r16_628_JUSTAS] , name the class its folding stability dG unfold places it in.
low group

Entry SAGGGSSSLPAVPVSVETFTFPYKTEEEAKAAAEELAKKLEAEDGKPVKVEVSFDPATGTATVTITVVSAGG [r13_517_JUSTAS] belongs to which category?
high group

Given SEAEEAARKLAEELGLEVEVVEVDEETGTVTVRVRFEDEPTVTITITFDEETGELTVTIEVRPPPPPPPESA [r9_1119_TrROS_Hall] , name the class its folding stability dG unfold places it in.
high group

Where would SAGGSAEKKVLKVKVEVVSVEVNEDGTVTVTAKVTFEDGLELTVTVTFDKETGELTIEVELRPLPPSAGGSA [r15_401_TrROS_Hall] land among the classes by reported folding stability dG unfold?
high group

Returns: class label. Input: SAGGSAGMDPSKVSLSISTKTYTDTATGRKVEELYFEGSGKKVTVTTLPDGTKIVTYENGVVIEVESAGGSA [r15_617_JUSTAS]
low group

Which bin, given its folding stability dG unfold, does SAGSKEALLSDPSFEPVEVEIHLEIEVPGVTPEEAEAIAKELEKEITEELKKKGIKNVKVTVTIRYVERSAG [r5_431_JUSTAS] occupy?
middle group

Into which category would you place SAGGSAGGMLLSSEEELEEELKRVREEGIGEVEVQVVDEKGNIHTLPTFVENPGPEPLPNEKLLSAGGSAGG [r6_258_JUSTAS] ?
low group

Lab log: SAGGSAGGKKKVLLVKVEIELPNGEKLELVAESEEEALEALKKLLEKKGLKIKKVEIVELEEKESAGGSAGG [r6_405_TrROS_Hall] — assign folding stability dG unfold category
middle group

Class? Entry: SAGGSAGGSGPKPRLIKLTFLLEPGKVEEFAQALRDAGFEIVSVEVEPLPDGGERATVTVRIDSAGGSAGGS [r12_905_TrMRF]
high group

Form field 'band' for SAGGSAGGSAGKETITITLVVTDENGEKYLIRVEAKIDPKTNKITITKIEIIRLDDLKKLSAGGSAGGSAGG [r11_777_TrROS_Hall]
middle group

Could you tell me which band SAGGSANMREVEIPMTPNDLEEALEEVEDAPPGRNVSVNMTNPEEGKPYPIKIRVNENGKLTEIEFSAGGSA [r15_228_TrROS] belongs to?
low group

Dear colleague, I would appreciate it if you could identify the bin for SAGAPGEVTVTVVRRPRVETEEERRRRRAPPPPVVTLTLKVPPGWVVRRVAFNADGEIVSVELYRRDDLSAG [r5_750_TrROS_Hall] and reply at your convenience.
middle group

Which folding stability dG unfold category applies to SAGGSAGGSAGPGVLILRRRFVRPRLIPNTGKLYYEEVELTTNLPIGPIPPNWLNNPNGVSAGGSAGGSAGG [r17_493_TrMRF] here?
low group

In plain terms, what class is SAGGSAGGSAGMVVSVDRATGTFTATDPALGTTTTVPGSEEEVRAYWAERFPDRPVTITASAGGSAGGSAGG [r11_614_JUSTAS] ?
low group

* * *

assay: folding stability dG unfold (combined trypsin and chymotrypsin); higher = more stable
quantity: folding stability dG unfold (kcal/mol)
Respond with the bare value in kcal/mol.

Answered examples (2):
residue_sequence	test_result
SAGGSAGRSRPLRLRFENPENGLRTEVELRVFEIGDYRVILLRERTYHPDTPGLSERDLLILLPPESAGGSA [r15_960_TrMRF]	3.35
SAGGKIKIMDIEIERHGGYYKIEIWIQVDTPDDIEDLLKAGVPNVEVERRRNPNGRLYVQAEFYIPAGSAGG [r13_506_TrROS]	3.14

Respond only with folding stability dG unfold recorded for SAGGSAEKKVLKVKVEVVSVEVNEDGTVTVTAKVTFEDGLELTVTVTFDKETGELTIEVELRPLPPSAGGSA [r15_401_TrROS_Hall]
3.13
